Overview of reported percent growth inhibition across a group of compounds:
Tested on: Klebsiella pneumoniae KPC-119
Experiment: percent growth inhibition of drug + antibiotic vs DMSO control; higher = more growth inhibition
Conditions: antibiotic (0.125x MIC): gentamicin; 20 µM
The reply should contain only the number, in %.

Reference set, count: 2
CN[C@@H]1[C@@H](O[C@H]2O[C@H](CO)[C@@H](N)[C@H](O)[C@H]2O)OC2C[C@@H](N)[C@@H](O[C@H]3[C@H](O)[C@@H](O)[C@H](N)C[C@@H]3N)OC2[C@@H]1O (some centres not stated) [Apramycin] | 100
CC1COc2c(N3CCN(C)CC3)c(F)cc3c(=O)c(C(=O)O)cn1c23 (configuration not stated) [Ofloxacin] | 100

Which percent growth inhibition value is on record for O=C1NCCN1c1ncc([N+](=O)[O-])s1 [Niridazole] ? 95.7

meta.source: the supplement of paper PMC6658780
